target: Frizzled1-GFP (Homo sapiens); construct: expressed in transfected cells; experiment: Frizzled internalization assay (Fzd1-GFP); format: cell-based; parameters: key: Punctate similar to control=0; trace amount of punctate greater than control=1; moderate=3; strong=5; details: 6 hours, 0-5 point scale
Sequence (Q9UP38 70-647): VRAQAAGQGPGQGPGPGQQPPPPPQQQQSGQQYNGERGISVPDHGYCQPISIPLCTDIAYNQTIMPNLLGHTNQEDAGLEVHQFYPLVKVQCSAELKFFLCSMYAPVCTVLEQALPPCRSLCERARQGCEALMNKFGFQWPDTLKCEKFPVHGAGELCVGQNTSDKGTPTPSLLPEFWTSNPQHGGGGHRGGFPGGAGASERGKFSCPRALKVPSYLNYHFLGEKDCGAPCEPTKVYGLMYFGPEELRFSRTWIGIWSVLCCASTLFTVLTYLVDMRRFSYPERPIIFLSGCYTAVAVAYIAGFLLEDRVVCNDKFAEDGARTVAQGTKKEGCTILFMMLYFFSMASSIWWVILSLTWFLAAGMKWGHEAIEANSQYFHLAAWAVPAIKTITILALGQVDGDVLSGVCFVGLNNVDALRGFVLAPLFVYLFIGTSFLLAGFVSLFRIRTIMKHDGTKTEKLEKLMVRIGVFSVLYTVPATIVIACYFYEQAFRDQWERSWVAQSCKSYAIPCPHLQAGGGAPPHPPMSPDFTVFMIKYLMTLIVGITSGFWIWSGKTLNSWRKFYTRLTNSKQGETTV
I'd appreciate it if you could supply Fzd1-GFP internalization @12.5 μM values for the items below.
One number for each entry.

Sample records with Fzd1-GFP internalization @12.5 μM:
{"COMPOUND": "O=C(Nc1ccc(Cl)c(Cl)c1)c1cc(Cl)ccc1O [Compound 17]", "EXPERIMENTAL TARGET": "Frizzled1-GFP (Homo sapiens)", "VAL": 5}
{"COMPOUND": "CN(C(=O)c1cc(Cl)ccc1O)c1ccc(C(F)(F)F)cc1 [Compound 24]", "EXPERIMENTAL TARGET": "Frizzled1-GFP (Homo sapiens)", "VAL": 0}
{"COMPOUND": "O=C(Nc1ccc(Cl)cc1)c1cc(Cl)ccc1O [Compound 11]", "EXPERIMENTAL TARGET": "Frizzled1-GFP (Homo sapiens)", "VAL": 0}

Now take the following compound into account.
Record lookup: for Frizzled1-GFP (Homo sapiens), what Fzd1-GFP internalization @12.5 μM belongs to CC(=O)Oc1ccc(Cl)cc1C(=O)Nc1ccc(C(F)(F)F)cc1Cl [Compound 59] ?
5

# credit: patent US10905665B2
